Data credit: patent US20250223284A1

Target: UniProtKB P53634
Sequence (P53634 25-134): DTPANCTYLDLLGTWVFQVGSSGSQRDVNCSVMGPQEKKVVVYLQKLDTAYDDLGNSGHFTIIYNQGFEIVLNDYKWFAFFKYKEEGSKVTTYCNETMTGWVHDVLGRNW
Sequence (P53634 231-394): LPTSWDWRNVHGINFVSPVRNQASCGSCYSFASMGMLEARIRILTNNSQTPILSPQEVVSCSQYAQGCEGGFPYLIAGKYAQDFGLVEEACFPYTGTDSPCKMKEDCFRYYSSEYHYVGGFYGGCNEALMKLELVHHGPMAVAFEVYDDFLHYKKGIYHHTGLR
Sequence (P53634 395-463): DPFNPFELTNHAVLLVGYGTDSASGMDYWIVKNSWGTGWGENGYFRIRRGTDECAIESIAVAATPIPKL
Assay: Human DPP1 Enzyme IC50 Assay
Conditions: recombinant human DPP1 activated with cathepsin L, H-Gly-Arg-AMC substrate, 10 min pre-incubation at 37° C., MES pH 6.0
Protocol: Recombinant human DPP1 enzyme (R&D Systems; Minneapolis, MN) was first proteolytically processed into its mature form using recombinant human cathepsin L (R&D Systems) in a buffer consisting of 20 mM citric acid pH 4.5, 150 mM NaCl, 1 mM EDTA and 10 mM DTT. […] Substrate cleavage was measured for 90 minutes at 37° C., with fluorescence at Excitation/Emission 350/450 nm measured every 5 minutes. […]
Metric Name: IC50

Given the entry CN1CC2(C1)OC(=O)c1ccc(-c3ccc(C[C@@H](C#N)NC(=O)[C@@H]4CNCCCCO4)cc3)cc12 (single isomer, unassigned) [drawing 536] , report its measured IC50.
30.9 nM

Would you kindly repeat that for Cn1c(=O)oc2ccc(-c3ccc(C[C@@H](C#N)NC(=O)[C@@H]4CNC[C@](O)(CO)CO4)cc3)cc21 (single isomer, unassigned) ?
781 nM

Would you kindly repeat that for Cn1c(=O)oc2ccc(-c3ccc(C[C@@H](C#N)NC(=O)[C@@H]4CNCC(O)(Cc5ccccn5)CO4)cc3)cc21 (single isomer, unassigned) ?
> 5000 nM

Would you kindly repeat that for Cn1c(=O)oc2ccc(-c3ccc(C[C@@H](C#N)NC(=O)[C@@H]4CNCCC(C)(O)CO4)cc3)cc21 (single isomer, unassigned) ?
2240 nM

Would you kindly repeat that for Cn1c(=O)oc2ccc(-c3ccc(C[C@@H](C#N)NC(=O)[C@@H]4CNCCCCO4)cc3)cc21 (single isomer, unassigned) [drawing 535] ?
22.3 nM

Would you kindly repeat that for Cn1c(=O)oc2ccc(-c3ccc(C[C@@H](C#N)NC(=O)[C@@H]4CNC[C@](C)(O)CO4)c(F)c3)cc21 (single isomer, unassigned) ?
13.6 nM

Would you kindly repeat that for CCC[C@@]1(O)CNC[C@@H](C(=O)N[C@H](C#N)Cc2ccc(-c3ccc4oc(=O)n(C)c4c3)cc2)OC1 (single isomer, unassigned) ?
769 nM

Would you kindly repeat that for Cn1c(=O)oc2ccc(-c3ccc(C[C@@H](C#N)NC(=O)C4CCCCCNC4)c(F)c3)cc21 (single isomer, unassigned) [drawing 548] ?
15.8 nM

Would you kindly repeat that for Cn1c(=O)oc2ccc(-c3ccc(C[C@@H](C#N)NC(=O)[C@@H]4CNC[C@@](C)(O)CO4)c(F)c3)cc21 (single isomer, unassigned) ?
14.1 nM

Would you kindly repeat that for CC[C@]1(O)CNC[C@@H](C(=O)N[C@H](C#N)Cc2ccc(-c3ccc4oc(=O)n(C)c4c3)cc2)OC1 (single isomer, unassigned) [drawing 519] ?
2740 nM

Would you kindly repeat that for CO[C@H]1CCNC[C@@H](C(=O)N[C@H](C#N)Cc2ccc(-c3ccc4oc(=O)n(C)c4c3)cc2)OC1 (single isomer, unassigned) [drawing 554] ?
17.4 nM

Would you kindly repeat that for CO[C@@H]1CCO[C@H](C(=O)N[C@H](C#N)Cc2ccc(-c3ccc4oc(=O)n(C)c4c3)cc2)CNC1 (single isomer, unassigned) [drawing 553] ?
6.82 nM

Would you kindly repeat that for CO[C@@]1(C)CNC[C@@H](C(=O)N[C@H](C#N)Cc2ccc(-c3ccc4oc(=O)n(C)c4c3)cc2)OC1 (relative stereo) ?
145 nM

Would you kindly repeat that for Cn1c(=O)oc2ccc(-c3ccc(C[C@@H](C#N)NC(=O)[C@@H]4CNC[C@](C)(O)CCO4)cc3)cc21 (single isomer, unassigned) ?
23.2 nM

Would you kindly repeat that for Cn1c(=O)oc2ccc(-c3ccc(C[C@@H](C#N)NC(=O)[C@@H]4CNC[C@@](O)(CO)CO4)cc3)cc21 (single isomer, unassigned) ?
234 nM

Would you kindly repeat that for Cn1c(=O)oc2ccc(-c3ccc(C[C@@H](C#N)NC(=O)[C@@H]4CNCCCCO4)cc3)cc21 (single isomer, unassigned) [drawing 513] ?
25.1 nM

Would you kindly repeat that for CCO[C@]1(C)CNC[C@@H](C(=O)N[C@H](C#N)Cc2ccc(-c3ccc4oc(=O)n(C)c4c3)cc2)OC1 (single isomer, unassigned) [drawing 552] ?
1680 nM

Would you kindly repeat that for C=CCC1(O)CNC[C@@H](C(=O)N[C@H](C#N)Cc2ccc(-c3ccc4oc(=O)n(C)c4c3)cc2)OC1 (single isomer, unassigned) ?
1020 nM

Would you kindly repeat that for Cn1c(=O)oc2ccc(-c3ccc(C[C@@H](C#N)NC(=O)[C@@H]4CNC[C@@](C)(O)CCO4)cc3)cc21 (single isomer, unassigned) ?
243 nM
